Hi there, I'd appreciate the recorded Maximum OD450 value for every entry that follows.
# measured on: T1, human EGFRvIII-hFc protein (human, UniProt P00533 25-645)
# T1 construct: extracellular domain; also called immunogen A; hFc-tagged EGFRvIII protein; not shown: human IgG Fc fragment (hFc) of the pCpC vector
# assay procedure: ELISA, EGFRvIII-hFc coated
Numbers only; they are read as OD450.

Endpoint output: Maximum OD450 value of Humanized antibody h63A10A7-18 (antibody, human IgG1, V domains shown, also called VH-g5/VL-g4) VH: QVQLVQSGAEVKKPGASVKVSCKASGYTFISFTMHWVKQRPGQGLEWIGYINPNSGYTKYNQKFKDKATLTADQSTSTAYMELSSLRSEDTAVYYCTRGGGRGFAYWGQGTLVTVSS VL: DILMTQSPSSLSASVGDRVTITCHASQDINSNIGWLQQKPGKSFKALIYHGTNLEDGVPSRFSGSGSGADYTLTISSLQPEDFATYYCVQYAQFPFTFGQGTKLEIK . Value? 3.71

Fill blank: measured Maximum OD450 value of the binder Humanized antibody h75G7C6-14 (antibody, human IgG1, V domains shown, also called VH-g2/VL-g1) VH: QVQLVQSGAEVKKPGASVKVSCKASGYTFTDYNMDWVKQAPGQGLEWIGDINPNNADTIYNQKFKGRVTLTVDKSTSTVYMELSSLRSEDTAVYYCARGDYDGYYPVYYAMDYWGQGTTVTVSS VL: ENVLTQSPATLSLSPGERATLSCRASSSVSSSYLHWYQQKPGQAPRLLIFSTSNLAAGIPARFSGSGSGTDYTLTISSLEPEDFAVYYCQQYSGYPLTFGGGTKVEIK is ____. 3.03

GET /values?readout=Maximum OD450 value&item= Humanized antibody h63A10A7-39 (antibody, human IgG1, V domains shown, also called VH-g8/VL-g3) VH: QVQLVQSGAEVKKPGASVKVSCKASGYTFISFTMHWVKQRPGQGLEWIGYINPNSGYTKYNQKFKDRVTLTRDTSTSTVYMELSSLRSEDTAVYYCTRGGGRGFAYWGQGTLVTVSS VL: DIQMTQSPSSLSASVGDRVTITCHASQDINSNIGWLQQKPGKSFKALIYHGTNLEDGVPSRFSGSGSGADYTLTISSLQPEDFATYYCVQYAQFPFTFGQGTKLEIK 3.6
